Reported z-score is given for each of the following compounds.
procedure details: JC-1 mitochondrial signal, unstimulated adipocytes – cell-based, JC-1 fluorescence, 3T3-L1 adipocytes, 24 h, 100 nL compound, profiling panel (AID 1168); further: test concentration not given here
experimental context: JC-1 mitochondrial fluorescence, higher = more signal, called active from +8 up or from −8 down
Form: value (number only, do not type unit).

>  <compound>
CCCC[C@@H]1C[C@H]1[C@@H](NC(=O)c1cccs1)c1ccccc1C(F)(F)F

>  <recorded endpoint>
z-score

>  <reported value>
-1.22

$$$$

Exercise: What value of z-score has been reported for the following compound? COc1cc(NN2C(C(O)c3ccco3)C=CC3C(=O)N(C)C(=O)C32)cc(OC)c1OC (stereo not given)
Solution: -0.892

Exercise: What value of z-score has been reported for the following compound? NC(=O)[C@@]1(Cc2ccccc2)COC(c2ccc(OCCCO)cc2)=N1
Solution: -0.392

Exercise: What value of z-score has been reported for the following compound? CCCC=C(CCC)[C@@H](NP(=O)(c1ccccc1)c1ccccc1)c1ccc(-c2ccccc2)cc1
Solution: 0.74

Exercise: What value of z-score has been reported for the following compound? CCC#CCN(Cc1ccccc1Br)[C@H](/C=C/C1CC1)[C@@H](O)Cc1ccccc1
Solution: -0.611

* * *

Reported composite z-score is given for each of the following compounds.
System: Wnt5a (protein binding on small-molecule microarray)
procedure details: small molecules binding Wnt5a protein – biophysical, small-molecule microarray, 635/667 nm fluorescence, primary screen (AID 1142);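 further: fluorescence read at 667 nm with signal to noise per printed feature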
experimental context: 635 nm fluorescence, higher = more signal

>  <smiles representation>
CCC#CCN(Cc1ccccc1Br)[C@H](/C=C/C1CC1)[C@@H](O)Cc1ccccc1

>  <target>
Wnt5a (protein binding on small-molecule microarray)

>  <composite z-score>
-0.679

$$$$
>  <smiles representation>
N[C@@H](Cc1ccccc1)C(=O)NCc1cn(Cc2ccccc2)nn1

>  <target>
Wnt5a (protein binding on small-molecule microarray)

>  <composite z-score>
-0.0432

$$$$

Exercise: Missing value: composite z-score, Wnt5a (protein binding on small-molecule microarray), entry COC(=O)[C@@H]1N=C(c2ccc(OCCCO)cc2)O[C@@H]1c1ccccc1 . Fill in?
Solution: -0.508

Exercise: Missing value: composite z-score, Wnt5a (protein binding on small-molecule microarray), entry COc1ccc(CCNC(=O)[C@@]2(Cc3ccccc3I)c3ccccc3C(=O)N(C3CCCCC3)[C@H]2c2ccc(CO)cc2)cc1 . Fill in?
Solution: -0.372

Exercise: Missing value: composite z-score, Wnt5a (protein binding on small-molecule microarray), entry COC(=O)[C@@]1(Cc2ccc(F)cc2)[C@H]2c3cc(C(=O)N(C)C)n(Cc4ccc(OC(F)(F)F)cc4)c3C[C@H]2CN1C(=O)c1ccccc1 . Fill in?
Solution: 0.0007

Exercise: Missing value: composite z-score, Wnt5a (protein binding on small-molecule microarray), entry COCCOC(=O)N1C(=O)[C@@]2(c3cc(C#CC4(O)CCCCCC4)ccc31)[C@H](C(=O)Nc1nc3ccccc3s1)[C@H]1C(=O)O[C@H](c3ccccc3)[C@H](c3ccccc3)N1[C@@H]2c1ccc(O)cc1 . Fill in?
Solution: 0.62

Exercise: Missing value: composite z-score, Wnt5a (protein binding on small-molecule microarray), entry COCCCNC(=O)[C@@]1(Sc2ccc(C)cc2)CC(=O)N(C2Cc3ccccc3C2)[C@@H]1c1ccc(CO)cc1 . Fill in?
Solution: -0.228

* * *

target: E3 ubiquitin-protein ligase XIAP (Homo sapiens) (UniProt P98170)
Sequence (P98170 whole entry, looked up): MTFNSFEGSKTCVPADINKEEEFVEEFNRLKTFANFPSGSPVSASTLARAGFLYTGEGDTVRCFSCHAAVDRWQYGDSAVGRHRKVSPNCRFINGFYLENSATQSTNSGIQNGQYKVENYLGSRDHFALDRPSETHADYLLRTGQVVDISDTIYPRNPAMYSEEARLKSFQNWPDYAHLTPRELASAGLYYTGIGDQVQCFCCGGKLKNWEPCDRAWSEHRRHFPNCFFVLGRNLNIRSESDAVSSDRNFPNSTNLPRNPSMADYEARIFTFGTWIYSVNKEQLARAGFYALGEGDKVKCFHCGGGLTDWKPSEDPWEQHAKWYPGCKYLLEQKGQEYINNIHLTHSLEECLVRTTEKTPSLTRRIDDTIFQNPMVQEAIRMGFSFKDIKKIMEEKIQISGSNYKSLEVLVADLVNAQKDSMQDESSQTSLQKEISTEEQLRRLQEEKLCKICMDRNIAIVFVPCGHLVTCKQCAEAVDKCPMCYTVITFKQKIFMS
procedure details: small molecules binding XIAP protein – biophysical, small-molecule microarray, fluorescence 635 nm, primary screen (AID 1181);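 further: score merges 667 nm emission and signal to noise over triplicate slides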
experimental context: higher = more signal
recorded endpoint: composite z-score
Form: value (number only, do not type unit).

Study these solved cases before continuing.
>  <compound>
CC(C)[Si](C#CCCCC#N)(O[C@H](c1ccccc1)c1cn(Cc2ccccc2)nn1)C(C)C

>  <target>
E3 ubiquitin-protein ligase XIAP (Homo sapiens) (UniProt P98170)

>  <composite z-score>
-0.0025

$$$$
>  <compound>
CCOC(=O)C[C@H]1[C@H](OC(=O)c2ccccc2-c2ccccc2)[C@@H](NC(=O)c2ccc3ccccc3c2)c2cc(OCCCO)ccc2N1C(=O)c1ccccc1

>  <target>
E3 ubiquitin-protein ligase XIAP (Homo sapiens) (UniProt P98170)

>  <composite z-score>
-0.0988

$$$$
>  <compound>
N#Cc1ccc(NN2C(C(O)c3ccc(Br)cc3)C=CC3C(=O)N(c4ccccc4)C(=O)C32)cc1 (stereo not drawn)

>  <target>
E3 ubiquitin-protein ligase XIAP (Homo sapiens) (UniProt P98170)

>  <composite z-score>
0.179

$$$$
>  <compound>
Cc1ccc(S[C@]2(C(=O)NCC(F)(F)F)CC(=O)N(Cc3cc(C(F)(F)F)cc(C(F)(F)F)c3)[C@@H]2c2ccc(CO)cc2I)cc1

>  <target>
E3 ubiquitin-protein ligase XIAP (Homo sapiens) (UniProt P98170)

>  <composite z-score>
-0.325

$$$$
>  <compound>
C[N+](C)(C)CCCCCCNC(=O)[C@@H]1C[C@@H]2C(=O)N3CCC[C@H]3C(=O)N2[C@@H]1c1ccc(O)cc1

>  <target>
E3 ubiquitin-protein ligase XIAP (Homo sapiens) (UniProt P98170)

>  <composite z-score>
-0.169

$$$$
>  <compound>
CCCNC(=O)[C@@H]1c2ccccc2C(=O)N(Cc2ccc(OC(F)(F)F)cc2)[C@H]1c1ccc(CO)cc1

>  <target>
E3 ubiquitin-protein ligase XIAP (Homo sapiens) (UniProt P98170)

>  <composite z-score>
0.155

$$$$

Exercise: What value of composite z-score has been reported for the following compound? O=C(O)[C@@H]1[C@@H]2C(=O)N(c3ccccc3)C(=O)[C@@H]2C[C@@H]1Sc1ccccc1
Solution: -0.0907

Exercise: What value of composite z-score has been reported for the following compound? CCCC[C@@H]1C[C@H]1[C@@H](NC(=O)c1cccs1)c1ccccc1C(F)(F)F
Solution: 0.99

* * *

Tested on: Plasmodium falciparum Sir2 (PF13_0152, Sir2A)
procedure details: Plasmodium falciparum Sir2A binding compounds – biochemical, small-molecule microarray, 635 nm fluorescence, primary screen (AID 1098);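 further: score merges spot fluorescence intensity with its signal-to-noise ratio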
experimental context: fluorescence 635 nm, higher = more signal
recorded endpoint: composite z-score
Form: value (number only, do not type unit).

>  <molecule>
COC(=O)[C@@H]1N=C(c2ccc(OCCCO)cc2)O[C@@H]1c1ccccc1

>  <reported value>
1.76

$$$$
>  <molecule>
CC(C)(C)OC(=O)CC[C@@]1(C(=O)NCC(O)CO)N=C(c2ccc(OCCCO)cc2)O[C@@H]1c1ccccc1CN=[N+]=[N-] (stereo not given in full)

>  <reported value>
0.552

$$$$
>  <molecule>
O=C1C2C=CC(C(O)c3cccc(O)c3)N(Nc3ccc([N+](=O)[O-])cc3)C2C(=O)N1c1ccccc1 (stereo not given)

>  <reported value>
0.367

$$$$
>  <molecule>
O=C1C2C=CC(C(O)c3ccco3)N(Nc3ccccc3F)C2C(=O)N1c1ccccc1 (stereo not given)

>  <reported value>
0.926

$$$$

Next up:
Exercise: Missing value: composite z-score, Plasmodium falciparum Sir2 (PF13_0152, Sir2A), entry Cc1ccc(F)cc1S(=O)(=O)N[C@@H]1CCN(Cc2ccc(Br)cc2)C1 . Fill in?
Solution: 0.0002

* * *

procedure details: probe aEGFR binding to arrayed compounds – biochemical, biotinylated probe, 635/667 nm fluorescence, primary screen (AID 1097);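 further: probe is a biotinylated anti-EGFR antibody binding compounds printed on slides; score combines fluorescence near 667 nm and signal to noise of each spot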
experimental context: small-molecule microarray, higher = more signal
Would you mind labelling by composite z-score? At or over -0.02 is t, under is f.

Examples from the recorded data:
>  <compound>
CC1CC/C=C\[C@H]2OC34C=CCN(C(C)C)C(=O)[C@H]3N(CCO)C(=O)[C@@H]4C2C(=O)O1 (stereo partly specified)

>  <category>
f

$$$$
>  <compound>
CCCCC=C[C@@H](NC(=O)OCc1ccccc1Cl)c1ccccc1

>  <category>
t

$$$$
>  <compound>
COc1ccc(C#Cc2ccc3c(c2)[C@]2(C(=O)N3)[C@H](c3ccc(OCCO)cc3)N3[C@H](c4ccccc4)[C@H](c4ccccc4)OC(=O)[C@H]3[C@@H]2C(=O)NC[C@H](O)c2ccccc2)cc1

>  <category>
t

$$$$
>  <compound>
COCC(=C=CC[C@H](O)c1ccc(CO)o1)CCO

>  <category>
f

$$$$

Exercise: Dear colleague, could you confirm whether COC(=O)[C@@]1(Cc2ccc(F)cc2)[C@H]2c3cc(C(=O)N4CCCC4)n(Cc4ccc(C)c(F)c4F)c3C[C@H]2CN1C(=O)c1ccccc1 has composite z-score at or above -0.02?
Solution: f

Exercise: Dear colleague, could you confirm whether CCOC(=O)C1=CC[C@@H](c2ccccc2F)N(S(=O)(=O)c2ccc(C)cc2)[C@H]1c1ccccc1 has composite z-score at or above -0.02?
Solution: f

Exercise: Dear colleague, could you confirm whether CN(C)c1ccc(C(O)C2C=CC3C(=O)NC(=O)C3N2Nc2ccccn2)cc1 (stereo unspecified) has composite z-score at or above -0.02?
Solution: t

Exercise: Dear colleague, could you confirm whether CC1=C2[C@@H](CCc3ccccc3)OB(O)C[C@@H]2[C@@H]2C(=O)N(C)C(=O)[C@@H]2C1 has composite z-score at or above -0.02?
Solution: f

Exercise: Dear colleague, could you confirm whether CCCC[C@@H](O)C1=C(COC)C[C@H]2C(=O)N(Cc3ccccc3)C(=O)[C@H]2[C@H]1CO has composite z-score at or above -0.02?
Solution: f

Exercise: Dear colleague, could you confirm whether C=CCN1Cc2ccccc2[C@@H]2OC(c3ccc(OCCCO)cc3)=N[C@]2(CC=C)C1=O has composite z-score at or above -0.02?
Solution: t

Exercise: Dear colleague, could you confirm whether CO[C@H]1O[C@H](CO)[C@@H](OC(=O)CCc2ccccc2)[C@@H]2OC(=O)[C@@H](Cc3ccccc3)C/C=C/C[C@H](Cc3ccccc3)C(=O)O[C@@H]12 has composite z-score at or above -0.02?
Solution: f

Exercise: Dear colleague, could you confirm whether CCOC(=O)C[C@H]1[C@H](OC(=O)Cc2ccc3c(c2)OCO3)[C@@H](NC(=O)c2ccc3ccccc3n2)c2cc(OCCCO)ccc2N1C(=O)c1ccc2ccccc2n1 has composite z-score at or above -0.02?
Solution: f

Exercise: Dear colleague, could you confirm whether O=C1C[C@]2(c3ccc([N+](=O)[O-])cc3)C(=O)N(C3CC3)c3cc(CO)ccc3[C@H]2N1CC12CC3CC(CC(C3)C1)C2 has composite z-score at or above -0.02?
Solution: f

Exercise: Dear colleague, could you confirm whether OCCCC1=CC(c2ccc(CN3CCCC3)cc2)N(Cc2cc3c(cc2Br)OCO3)CC1 (stereo unspecified) has composite z-score at or above -0.02?
Solution: t

Exercise: Dear colleague, could you confirm whether Cc1ccc(S[C@]2(C(=O)NC(C)C)CC(=O)N(Cc3cc(C(F)(F)F)cc(C(F)(F)F)c3)[C@@H]2c2ccc(CO)cc2)cc1 has composite z-score at or above -0.02?
Solution: f

Exercise: Dear colleague, could you confirm whether COc1ccc([Si](C)(C)[C@@H]2[C@@H](CCO)O[C@]3(C(=O)N(Cc4ccccc4)c4ccc(N5CCOC5=O)cc43)[C@H]2C)cc1 has composite z-score at or above -0.02?
Solution: f

Exercise: Dear colleague, could you confirm whether O=C(C1N=C(c2ccc(OCCCO)cc2)N(c2ccccc2)O1)N1CCCCC1 (stereo unspecified) has composite z-score at or above -0.02?
Solution: t

Numbers sourced from PubChem BioAssay.
